Recorded values, source ChEMBL document CHEMBL1135346.

- experiment_notes: Inhibitory activity against Hepatitis B virus reverse transcriptase (HBV-RT) at 0.01 ug/mL
I would appreciate it if you labelled entries t when inhibition is 40% or higher, otherwise f.

- compound_structure: "COCCNC(=O)c1ccc(C(=O)N2CCN(c3ncccc3NCC(C)C)CC2)nc1"
  group_label: "t"
- compound_structure: "CCNc1cccnc1N1CCN(C(=O)c2ccc(C(=O)NC(C)C)cn2)CC1"
  group_label: "t"
- compound_structure: "CC(C)CNC(=O)c1ccc(C(=O)N2CCN(c3ncccc3NC(C)C)CC2)nc1"
  group_label: "t"
- compound_structure: "COCCNC(=O)c1ccc(C(=O)N2CCN(c3ncccc3NC(C)C)CC2)nc1"
  group_label: "t"
- compound_structure: "CC(C)Nc1cccnc1N1CCN(C(=O)c2ccc(C(=O)NC(C)(C)CO)cn2)CC1"
  group_label: "t"
- compound_structure: "CC(C)Nc1cccnc1N1CCN(C(=O)c2ccc(C(=O)NCCCn3ccnc3)cn2)CC1"
  group_label: "t"
- compound_structure: "CC(C)Nc1cccnc1N1CCN(C(=O)c2ccc(C(=O)NC(C)(C)C)cn2)CC1"
  group_label: "t"
- compound_structure: "Nc1cccnc1N1CCN(C(=O)c2ccc(C(=O)NCc3ccccn3)cn2)CC1"
  group_label: "f"
- compound_structure: "CC(C)CNc1cccnc1N1CCN(C(=O)c2ccc(C(=O)NC(C)(C)CO)cn2)CC1"
  group_label: "t"
- compound_structure: "COCCCNC(=O)c1ccc(C(=O)N2CCN(c3ncccc3NC(C)C)CC2)nc1"
  group_label: "f"
- compound_structure: "CC(C)Nc1cccnc1N1CCN(C(=O)c2ccc(C(=O)NCCO)cn2)CC1"
  group_label: "f"
- compound_structure: "CCNc1cccnc1N1CCN(C(=O)c2ccc(C(=O)NCCN3CCOCC3)cn2)CC1"
  group_label: "f"
- compound_structure: "COCCCNC(=O)c1ccc(C(=O)N2CCN(c3ncccc3NCC(C)C)CC2)nc1"
  group_label: "f"
- compound_structure: "COC(CNC(=O)c1ccc(C(=O)N2CCN(c3ncccc3NC(C)C)CC2)nc1)OC"
  group_label: "t"
- compound_structure: "CC(C)NC(=O)c1ccc(C(=O)N2CCN(c3ncccc3N)CC2)nc1"
  group_label: "t"
- compound_structure: "CC(C)Nc1cccnc1N1CCN(C(=O)c2ccc(C(=O)NCCN3CCOCC3)cn2)CC1"
  group_label: "t"
- compound_structure: "CCNc1cccnc1N1CCN(C(=O)c2ccc(C(=O)NCCOC)cn2)CC1"
  group_label: "f"
- compound_structure: "Cc1ccn(NC(=O)c2ccc(C(=O)N3CCN(c4ncccc4NC(C)C)CC3)nc2)n1"
  group_label: "f"
- compound_structure: "CCNc1cccnc1N1CCN(C(=O)c2ccc(C(=O)NCCO)cn2)CC1"
  group_label: "t"
- compound_structure: "CC(C)CNc1cccnc1N1CCN(C(=O)c2ccc(C(=O)Nc3ncccc3O)cn2)CC1"
  group_label: "f"
- compound_structure: "CC(C)CNc1cccnc1N1CCN(C(=O)c2ccc(C(=O)NCCO)cn2)CC1"
  group_label: "t"
- compound_structure: "CCNc1cccnc1N1CCN(C(=O)c2ccc(C(=O)NCc3ccccn3)cn2)CC1"
  group_label: "f"
- compound_structure: "CC(C)Nc1cccnc1N1CCN(C(=O)c2ccc(C(=O)NCc3ccccn3)cn2)CC1"
  group_label: "t"
- compound_structure: "CC(C)CNc1cccnc1N1CCN(C(=O)c2ccc(C(=O)NCCCn3ccnc3)cn2)CC1"
  group_label: "t"
- compound_structure: "CC(C)NC(=O)c1ccc(C(=O)N2CCN(c3ncccc3NC(C)C)CC2)nc1"
  group_label: "f"
- compound_structure: "CC(C)Nc1cccnc1N1CCN(C(=O)c2ccc(C(=O)NCCCO)cn2)CC1"
  group_label: "t"
- compound_structure: "CC(C)(CO)NC(=O)c1ccc(C(=O)N2CCN(c3ncccc3N)CC2)nc1"
  group_label: "f"
- compound_structure: "CC(C)CNc1cccnc1N1CCN(C(=O)c2ccc(C(=O)NC3CC3)cn2)CC1"
  group_label: "t"
- compound_structure: "Nc1cccnc1N1CCN(C(=O)c2ccc(C(=O)NCCO)cn2)CC1"
  group_label: "t"
- compound_structure: "CC(C)Nc1cccnc1N1CCN(C(=O)c2ccc(C(=O)NC3CC3)cn2)CC1"
  group_label: "f"
- compound_structure: "CCNc1cccnc1N1CCN(C(=O)c2ccc(C(=O)NC(C)(C)CO)cn2)CC1"
  group_label: "f"
- compound_structure: "CC(C)Nc1cccnc1N1CCN(C(=O)c2ccc(C(=O)Nc3ccccn3)cn2)CC1"
  group_label: "f"
- compound_structure: "CC(C)CNc1cccnc1N1CCN(C(=O)c2ccc(C(=O)NC(C)C)cn2)CC1"
  group_label: "t"
- compound_structure: "Cc1cc(NC(=O)c2ccc(C(=O)N3CCN(c4ncccc4NC(C)C)CC3)nc2)no1"
  group_label: "f"

====

- experiment_notes: Inhibitory activity against Hepatitis B virus reverse transcriptase (HBV-RT) at 1 ug/mL

- compound_structure: "CC(C)Nc1cccnc1N1CCN(C(=O)c2ccc(C(=O)NC(C)(C)CO)cn2)CC1"
  inhibition, %: 80
- compound_structure: "Nc1cccnc1N1CCN(C(=O)c2ccc(C(=O)NCc3ccccn3)cn2)CC1"
  inhibition, %: 72
- compound_structure: "COCCCNC(=O)c1ccc(C(=O)N2CCN(c3ncccc3NCC(C)C)CC2)nc1"
  inhibition, %: 72
- compound_structure: "COC(CNC(=O)c1ccc(C(=O)N2CCN(c3ncccc3NC(C)C)CC2)nc1)OC"
  inhibition, %: 87
- compound_structure: "CC(C)CNc1cccnc1N1CCN(C(=O)c2ccc(C(=O)NC(C)C)cn2)CC1"
  inhibition, %: 90

====

- experiment_notes: Inhibitory concentration against Hepatitis B virus reverse transcriptase (HBV-RT)
Binning of IC50 into classes: low (below 0.005 mg/L), middle (0.005 mg/L to below 0.09 mg/L), high (0.09 mg/L or more)

- compound_structure: "Nc1cccnc1N1CCN(C(=O)c2ccc(C(=O)NCCO)cn2)CC1"
  group_label: "low"
- compound_structure: "CC(C)Nc1cccnc1N1CCN(C(=O)c2ccc(C(=O)NC3CCCC3)cn2)CC1"
  group_label: "middle"
- compound_structure: "CC(C)CNc1cccnc1N1CCN(C(=O)c2ccc(C(=O)NCCO)cn2)CC1"
  group_label: "middle"
- compound_structure: "CC(C)Nc1cccnc1N1CCN(C(=O)c2ccc(C(=O)NCCCn3ccnc3)cn2)CC1"
  group_label: "low"
- compound_structure: "CC(C)NC(=O)c1ccc(C(=O)N2CCN(c3ncccc3N)CC2)nc1"
  group_label: "middle"
- compound_structure: "CCNc1cccnc1N1CCN(C(=O)c2ccc(C(=O)NCc3ccccn3)cn2)CC1"
  group_label: "high"
- compound_structure: "Nc1cccnc1N1CCN(C(=O)c2ccc(C(=O)NCc3ccccn3)cn2)CC1"
  group_label: "high"
- compound_structure: "COCCCNC(=O)c1ccc(C(=O)N2CCN(c3ncccc3NC(C)C)CC2)nc1"
  group_label: "high"
- compound_structure: "CC(C)Nc1cccnc1N1CCN(C(=O)c2ccc(C(=O)Nc3ccccn3)cn2)CC1"
  group_label: "middle"
- compound_structure: "CCNc1cccnc1N1CCN(C(=O)c2ccc(C(=O)NC(C)(C)CO)cn2)CC1"
  group_label: "middle"
- compound_structure: "CCNc1cccnc1N1CCN(C(=O)c2ccc(C(=O)NCCOC)cn2)CC1"
  group_label: "middle"
- compound_structure: "CC(C)Nc1cccnc1N1CCN(C(=O)c2ccc(C(=O)NC3CC3)cn2)CC1"
  group_label: "high"
- compound_structure: "CCNc1cccnc1N1CCN(C(=O)c2ccc(C(=O)NCCN3CCOCC3)cn2)CC1"
  group_label: "high"
- compound_structure: "COCCNC(=O)c1ccc(C(=O)N2CCN(c3ncccc3NC(C)C)CC2)nc1"
  group_label: "low"
- compound_structure: "COCCCNC(=O)c1ccc(C(=O)N2CCN(c3ncccc3NCC(C)C)CC2)nc1"
  group_label: "high"
- compound_structure: "CC(C)CNc1cccnc1N1CCN(C(=O)c2ccc(C(=O)NC3CC3)cn2)CC1"
  group_label: "low"
- compound_structure: "CC(C)Nc1cccnc1N1CCN(C(=O)c2ccc(C(=O)NCCN3CCOCC3)cn2)CC1"
  group_label: "middle"
- compound_structure: "CC(C)Nc1cccnc1N1CCN(C(=O)c2ccc(C(=O)NC(C)(C)C)cn2)CC1"
  group_label: "low"

====

- experiment_notes: Inhibitory activity against Hepatitis B virus reverse transcriptase (HBV-RT) at 1 ug/mL
If the reported inhibition equals or exceeds 70%, assign Satisfied. If not, assign Not satisfied.

- compound_structure: "CC(C)Nc1cccnc1N1CCN(C(=O)c2ccc(C(=O)NC3CC3)cn2)CC1"
  group_label: "Not satisfied"
- compound_structure: "CCNc1cccnc1N1CCN(C(=O)c2ccc(C(=O)NCCOC)cn2)CC1"
  group_label: "Satisfied"
- compound_structure: "Nc1cccnc1N1CCN(C(=O)c2ccc(C(=O)NCCO)cn2)CC1"
  group_label: "Satisfied"
- compound_structure: "COCCCNC(=O)c1ccc(C(=O)N2CCN(c3ncccc3NC(C)C)CC2)nc1"
  group_label: "Not satisfied"
- compound_structure: "CC(C)Nc1cccnc1N1CCN(C(=O)c2ccc(C(=O)NCc3ccccn3)cn2)CC1"
  group_label: "Satisfied"
- compound_structure: "CCNc1cccnc1N1CCN(C(=O)c2ccc(C(=O)NCCN3CCOCC3)cn2)CC1"
  group_label: "Not satisfied"
- compound_structure: "COCCNC(=O)c1ccc(C(=O)N2CCN(c3ncccc3NCC(C)C)CC2)nc1"
  group_label: "Satisfied"
- compound_structure: "CC(C)Nc1cccnc1N1CCN(C(=O)c2ccc(C(=O)NCCCn3ccnc3)cn2)CC1"
  group_label: "Satisfied"
